# ASSAYED_SYSTEM: T1, Recombinant HLA-DRB1*1101 protein (human)
# T1 chain 1: not shown
# T1 chain 2: not shown
# ASSAY_CONTEXT: remark: other sources report otherwise
Assignment: determine reported pIC50 for the given binders.
One number for each entry, as −log10 of the molar value.

Batch request: pIC50 for each of the following binders.
1. ENRSWYLTENIQRFLPNPAG [FVIII581-600 peptide]
2. ENIQRFLPNPAGVQLEDPEF [FVIII589-608 peptide]

[5.96, 5.96]
